# METHOD: Solubility measurement of saturated solutions by HPLC at room temperature (0 h and 24 h)
# Assay type: physicochemical
# CONDITION SET: buffered water with excipients, pH 4, aqueous with cosolvent or surfactant or cyclodextrin, thermodynamic from solid, CBS 30 mM pH 4.0, NaCl 3 mg/mL; SBE-beta-CD 40 mg/mL + Glycerol 1 mg/mL; 24 h; pH exp 4.3
MEASURED ATTRIBUTE: solubility at 24 h (µg/mL)

>  <SUBSTANCE SMILES>
COc1cc(N2CCNCC2)ccc1Nc1ncc2c(n1)-n1ccc(C(=O)Nc3c(C)cccc3C)c1CC2

>  <NUMERIC VALUE>
3720

$$$$
